Exercise: state measured recombinant barcode read abundance (log10) for each of the sequences provided.
# measurement.protocol: recombinant barcode read abundance after kanamycin selection (control-corrected) (log10(CPM+1)); higher = more efficient recombination; sequences stand for … in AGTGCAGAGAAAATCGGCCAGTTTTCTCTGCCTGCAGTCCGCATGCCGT…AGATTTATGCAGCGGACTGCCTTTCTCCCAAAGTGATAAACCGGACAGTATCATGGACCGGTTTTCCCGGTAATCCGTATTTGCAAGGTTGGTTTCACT; site = the 11-nt target;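 further: IS621 recombinase and bridge RNA in Escherichia coli cells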
A bare number is all that is needed in reply.

Prompt: Please look at this sequence and report its recombinant barcode read abundance (log10): GACGGCACTTGGGTTCTAACCTGTTGCCT (site CGGCTACCTCC)
Completion: 0.0844

Prompt: Please look at this sequence and report its recombinant barcode read abundance (log10): GACTCTCCTTGGGTTCTAACCTGTTGCAG (site GACTCTCCTCT)
Completion: 0.0267

Prompt: Please look at this sequence and report its recombinant barcode read abundance (log10): ATGTCTACTTGGGTTCTAACCTGTTGCCA (site ATGTCTACTTG)
Completion: 0.0628

Prompt: Please look at this sequence and report its recombinant barcode read abundance (log10): GCGGATCCTTGGGTTCTAACCTGTTGCCT (site GCGCATCCTAG)
Completion: 0.0111

Prompt: Please look at this sequence and report its recombinant barcode read abundance (log10): TAGACTACTTGGGTTCTAACCTGTTGCTG (site TAGACTACTAA)
Completion: 0.0928

Prompt: Please look at this sequence and report its recombinant barcode read abundance (log10): CTGGAAACTTGGGTTCTAACCTGTTGCCT (site CGGGTAACTAG)
Completion: 0.0164

Prompt: Please look at this sequence and report its recombinant barcode read abundance (log10): TAGGTTCCTTGGGTTCTAACCTGTTGCCT (site TCGGTTCCTAG)
Completion: 0.161

Prompt: Please look at this sequence and report its recombinant barcode read abundance (log10): ACCTGTGCTTGGGTTCTAACCTGTTGCCT (site ATCTGTTCTAG)
Completion: 0.151

Prompt: Please look at this sequence and report its recombinant barcode read abundance (log10): GCCCGGGCTTGGGTTCTAACCTGTTGCGG (site GGCCGGGCTCC)
Completion: 0.022

Prompt: Please look at this sequence and report its recombinant barcode read abundance (log10): TCCGGAGCTTGGGTTCTAACCTGTTGCCG (site TCCGGAGCTCG)
Completion: 0.652

Prompt: Please look at this sequence and report its recombinant barcode read abundance (log10): AATGTATCTTGGGTTCTAACCTGTTGCCT (site AATGCATCTAG)
Completion: 0.0382

Prompt: Please look at this sequence and report its recombinant barcode read abundance (log10): TATATAACTTGGGTTCTAACCTGTTGCCT (site TATAGAACTAG)
Completion: 0.119

Prompt: Please look at this sequence and report its recombinant barcode read abundance (log10): CCAAGGGCTTGGGTTCTAACCTGTTGCAG (site CCAAGGGCTCC)
Completion: 0.546

Prompt: Please look at this sequence and report its recombinant barcode read abundance (log10): CCTACACCTTGGGTTCTAACCTGTTGCCT (site CCTACAGCTAG)
Completion: 0.0384

Prompt: Please look at this sequence and report its recombinant barcode read abundance (log10): GTCTAATCTTGGGTTCTAACCTGTTGCCT (site GTCTAATCTAG)
Completion: 0.719

Prompt: Please look at this sequence and report its recombinant barcode read abundance (log10): ATTGGATCTTGGGTTCTAACCTGTTGCCT (site ATTGGGTCTAG)
Completion: 0.0971

Prompt: Please look at this sequence and report its recombinant barcode read abundance (log10): AGTTGTCCTTGGGTTCTAACCTGTTGCTT (site AGTTGTCCTAC)
Completion: 0.0653

Prompt: Please look at this sequence and report its recombinant barcode read abundance (log10): TAGGGAGCTTGGGTTCTAACCTGTTGCAT (site TAGAGAGCTCT)
Completion: 0.0779

Prompt: Please look at this sequence and report its recombinant barcode read abundance (log10): TTGACGACTTGGGTTCTAACCTGTTGCCA (site TTGGCGACTTG)
Completion: 0.116

Prompt: Please look at this sequence and report its recombinant barcode read abundance (log10): CCTCAGTCTTGGGTTCTAACCTGTTGCTT (site CCTCACTCTAA)
Completion: 0.0235

Prompt: Please look at this sequence and report its recombinant barcode read abundance (log10): CTAGGAGCTTGGGTTCTAACCTGTTGCCT (site CTAGGAGCTAG)
Completion: 0.148

Prompt: Please look at this sequence and report its recombinant barcode read abundance (log10): TCGTTCGCTTGGGTTCTAACCTGTTGCCT (site TCGTTCGCTAG)
Completion: 0.21

Prompt: Please look at this sequence and report its recombinant barcode read abundance (log10): TGCGATACTTGGGTTCTAACCTGTTGCTT (site TGCGATACTAA)
Completion: 0.223

Prompt: Please look at this sequence and report its recombinant barcode read abundance (log10): ATCGGAGCTTGGGTTCTAACCTGTTGCCG (site ATCGGAGCTCC)
Completion: 0.0715

Prompt: Please look at this sequence and report its recombinant barcode read abundance (log10): GAAGTGCCTTGGGTTCTAACCTGTTGCCT (site GAAGTGCCTAG)
Completion: 1.92
